target: Furin (Homo sapiens); test: human furin inhibitors, primary screen, biochemical, fluorescence intensity (AID 463115); details: purified furin, fluorogenic substrate cleavage; at 30 µM unless noted
In all, about 220,000 compounds went through this assay and about 130 (0.059%) were called active. No stated cut-off is given here; in the data, active means inhibition above about 25%; inactive means the rest. The sample holds actives, similar compounds and a random draw of the others, so the mix is not that of the screen.
Classes used: active, inactive

[[record]]
compound = "CCC(C)(C)NC(=O)CN(C(=O)C(=O)Nc1ccc2c(c1)OCCO2)C(C)(C)CC"
assayed_target = "Furin (Homo sapiens)"
classification = "inactive"

[[record]]
compound = "C=CCC(CC=C)(C(N)=O)c1ccccc1"
assayed_target = "Furin (Homo sapiens)"
classification = "inactive"

[[record]]
compound = "Cc1ccc(/C=C/C(=O)O)cc1S(=O)(=O)N1CCC(Cc2ccccc2)CC1"
assayed_target = "Furin (Homo sapiens)"
classification = "inactive"

[[record]]
compound = "CSc1nnc(SCc2nc3sc(C(=O)O)c(C)c3c(=O)[nH]2)s1"
assayed_target = "Furin (Homo sapiens)"
classification = "inactive"

[[record]]
compound = "COc1cccc(OCc2cc(/C=N/NC(=O)c3nc(Cl)c(Cl)c(N)c3Cl)ccc2OC)c1"
assayed_target = "Furin (Homo sapiens)"
classification = "inactive"

[[record]]
compound = "COc1ccc(NS(=O)(=O)c2ccc(Oc3c(C#N)cccc3C#N)cc2)cc1"
assayed_target = "Furin (Homo sapiens)"
classification = "inactive"

[[record]]
compound = "CCCN(CCC)CC(O)COc1ccccc1C(=O)Nc1ccccc1 (configuration not stated)"
assayed_target = "Furin (Homo sapiens)"
classification = "inactive"

[[record]]
compound = "Cc1ccc(-c2cc(C(F)(F)F)n3ncc(C(=O)N4CCCCC4c4cccnc4)c3n2)cc1 (configuration not stated)"
assayed_target = "Furin (Homo sapiens)"
classification = "inactive"

[[record]]
compound = "CCN(C(=O)CSc1nnc2ccccn12)C1CCS(=O)(=O)C1 (configuration not stated)"
assayed_target = "Furin (Homo sapiens)"
classification = "inactive"

[[record]]
compound = "CC1(C)CC(=O)C(CC(=O)N2CCC(Cc3ccccc3)CC2)C(=O)C1"
assayed_target = "Furin (Homo sapiens)"
classification = "inactive"

[[record]]
compound = "COc1cccc(/C=N/NC(=O)CNC(=O)c2ccc(S(=O)(=O)N3CCOCC3)cc2)c1OC"
assayed_target = "Furin (Homo sapiens)"
classification = "inactive"

[[record]]
compound = "CC(=O)NC(C)c1nc2ccccc2n1Cc1ccccc1F (configuration not stated)"
assayed_target = "Furin (Homo sapiens)"
classification = "active"

[[record]]
compound = "CCC(=O)NC(Nc1nc2ccc(C)cc2s1)(C(=O)OC)C(F)(F)F (configuration not stated)"
assayed_target = "Furin (Homo sapiens)"
classification = "inactive"

[[record]]
compound = "CC(C)(C)c1nc2ccccc2c(=O)n1N1C(=O)c2ccccc2C1=O"
assayed_target = "Furin (Homo sapiens)"
classification = "inactive"

[[record]]
compound = "COc1ccc(CCNC(=O)C(=O)NCc2ccccc2C)cc1OC"
assayed_target = "Furin (Homo sapiens)"
classification = "inactive"

[[record]]
compound = "CCC(=O)Nc1nc2ccccc2n1Cc1ccccc1C"
assayed_target = "Furin (Homo sapiens)"
classification = "inactive"

[[record]]
compound = "CCOc1ccc(NC(=S)NC(=O)/C=C/c2ccc(OC)cc2)c([N+](=O)[O-])c1"
assayed_target = "Furin (Homo sapiens)"
classification = "inactive"

[[record]]
compound = "C=CCn1c(C(C)NC(=O)CC)nc2ccccc21 (configuration not stated)"
assayed_target = "Furin (Homo sapiens)"
classification = "inactive"

[[record]]
compound = "CC(Sc1nnc(Cc2ccc([N+](=O)[O-])cc2)o1)C(N)=O (configuration not stated)"
assayed_target = "Furin (Homo sapiens)"
classification = "inactive"

[[record]]
compound = "CC(CC(=O)O)CC(=O)NNC(=O)c1cccc(Br)c1 (configuration not stated)"
assayed_target = "Furin (Homo sapiens)"
classification = "inactive"

[[record]]
compound = "Cc1cccc(-n2c(SCC(=O)Nc3cccc(S(=O)(=O)NC4=NCCCCC4)c3)nc3ccccc3c2=O)c1C"
assayed_target = "Furin (Homo sapiens)"
classification = "inactive"

[[record]]
compound = "CCOCN(C(=O)Cn1c(C(C)O)nc2ccccc21)c1c(C)cccc1CC (configuration not stated)"
assayed_target = "Furin (Homo sapiens)"
classification = "inactive"

